- Tested on: Plasmodium falciparum
- PROTOCOL: Antiprotozoal activity against intraerythrocytic stage of chloroquine-sensitive Plasmodium falciparum NF54 by [3H]hypoxanthine incorporation assay
- Assay type: functional, organism-based
- CONDITION INFO: Plasmodium falciparum, NF54
pIC50 reference
// field semantics: pIC50 = negative decimal log of concentration (mol/L)

The following compounds have reported results that may help.
Cn1c2ccc(NC3=NCCN3)cc2c(=O)c2cc(NC3=NCCN3)ccc21.O=C(O)C(F)(F)F.O=C(O)C(F)(F)F    6.66
Cl.Cl.O=c1c2ccc(NC3=NCCN3)cc2[nH]c2ccc(NC3=NCCN3)cc12    6.08

Ask | Provide pIC50, tested on Plasmodium falciparum, for Cn1c2ccc(NC3=NCCN3)cc2c(=O)c2ccc(NC3=NCCN3)cc21.O=C(O)C(F)(F)F.O=C(O)C(F)(F)F .
Reply | 6.25

====

- Tested on: Trypanosoma cruzi
- PROTOCOL: Antiprotozoal activity against intracellular amastigote stage of Trypanosoma cruzi Tulahuen C4 by colorimetric assay
- Assay type: functional, organism-based
IC50 reference

The following compounds have reported results that may help.
Cl.Cl.O=c1c2ccc(NC3=NCCN3)cc2[nH]c2cc(NC3=NCCN3)ccc12    > 230 µM
Cl.Cl.O=c1c2cc(NC3=NCCN3)ccc2[nH]c2ccc(NC3=NCCN3)cc12    > 230 µM

--- query ---
Ask | Provide IC50, tested on Trypanosoma cruzi, for Cl.Cl.O=c1c2ccc(NC3=NCCN3)cc2[nH]c2ccc(NC3=NCCN3)cc12 .
Reply | > 230 µM

====

CC50 reference
- PROTOCOL: Cytotoxicity against rat L6 cells
- Assay type: cell-based
- CONDITION INFO: L6 cells
Provide only the numeric value, understood in µM.

The following compounds have reported results that may help.
Nc1ccc2c(=O)c3cc(N)ccc3[nH]c2c1    23
Cn1c2ccc(NC3=NCCN3)cc2c(=O)c2cc(NC3=NCCN3)ccc21.O=C(O)C(F)(F)F.O=C(O)C(F)(F)F    104

Ask | For the compound COc1cc([C@@H]2c3cc4c(cc3[C@H](O)[C@H]3COC(=O)[C@H]23)OCO4)cc(OC)c1OC , give its reported CC50.
Reply | 0.012

Ask | For the compound Nc1cccc(Nc2ccc([N+](=O)[O-])cc2C(=O)O)c1 , give its reported CC50.
Reply | 266

Ask | For the compound Nc1ccc2c(=O)c3cc([N+](=O)[O-])ccc3[nH]c2c1 , give its reported CC50.
Reply | 147

Ask | For the compound Cl.Cl.O=c1c2ccc(NC3=NCCN3)cc2[nH]c2cc(NC3=NCCN3)ccc12 , give its reported CC50.
Reply | 137
